Experiment Notes: Pharmacokinetic study, single i.v. injection
Type: in vivo, Wistar rats
Cond: male, Wistar, rat, plasma, iv, 10 mg/kg
Readout: AUC(0-t) (ng·h/mL)
Respond numerically; units are ng·h/mL and should not be typed.

Problem: Recorded AUC(0-t) for COc1cc2ncnc(Nc3ccc(F)c(Cl)c3)c2cc1OCCCN1CCOCC1 [Gefitinib] , please?
Solution: 33300

src = paper PMC10693281
